# assay.method.text: RP, Waters ACQUITY UPLC HSS C18, 100 × 2.1 mm, 1.7 µm, 40 °C, 0.35 mL/min, estimated dead time 0.63 min; A: water + 0.1% formic acid; B: methanol + 0.1% formic acid; gradient (min/%B) 0/0.5 4/70 4.5/98 5.4/98
# measurement.parameters: stereoisomer not certain
reported.property: LC retention time (min)

Here are 10 compounds together with their reported answers.
1. OCC1OC(OCC2OC(OC3(CO)OC(CO)C(O)C3O)C(O)C(O)C2O)C(O)C(O)C1O (stereo not given) : 0.835
2. CC(=CC(=O)O)CC(=O)O : 3.07
3. O=Cc1ccc(O)c(O)c1 : 2.91
4. O=C(O)C1(O)CC(O)C(O)C(O)C1 (stereo not given) : 0.867
5. CN(C)CCC=C1c2ccccc2CCc2ccccc21 : 4.85
6. COc1ccc(-c2oc3cc(O)ccc3c(=O)c2O)cc1O : 3.62
7. NC(=O)c1cccnc1 : 1.4
8. CN1CC(=O)NC1=O : 1.62
9. CCC(O)(CC)C(=O)O : 3.56
10. Nc1ncnc2nc[nH]c12 : 1.05

[A] NC(=O)NCCCCC(N)C(=O)O (stereo not given)
[B] CCc1occc(=O)c1O
[C] CC1CNC(=O)NC1=O (stereo not given)
Exercise: Arrange these 3 compounds in increasing order of LC retention time. Answer format: list of labels, ordered as asked.
Solution: A, C, B
(A: 0.857 min, C: 1.87 min, B: 3.63 min)

[I] Cn1c(=O)[nH]c2ncn(C)c2c1=O
[II] O=C(O)C=Cc1cnc[nH]1
Exercise: Hi there! Just curious which has the higher LC retention time between I and II . Mark your selection by writing its label.
Solution: I
(I: 2.8 min, II: 1.16 min)

---

# assay.method.text: RP, Waters ACQUITY UPLC HSS C18, 100 × 2.1 mm, 1.7 µm, 40 °C, 0.35 mL/min, estimated dead time 0.63 min; A: water + 0.1% formic acid; B: methanol + 0.1% formic acid; gradient (min/%B) 0/0.5 4/70 4.5/98 5.4/98
# measurement.parameters: stereoisomer not certain
reported.property: LC retention time (min)

In the examples that follow, each entry is paired with its recorded LC retention time.
1. CC(C)(N)C(=O)O : 0.821
2. CNCC(O)c1ccc(O)cc1 (stereo not drawn) : 0.855
3. CCCOC(=O)c1cc(O)c(O)c(O)c1 : 4.3

[A] CC(C(=O)O)c1cccc(C(=O)c2ccccc2)c1 (stereo not drawn)
[B] NC(=O)c1ncn(C2OC(COP(=O)(O)O)C(O)C2O)c1N (stereo not drawn)
[C] Nc1ncnc2c1ncn2C1OC(CO)C2OP(=O)(O)OC21 (stereo not drawn)
Exercise: Rank descending by LC retention time. Your task in answering is to list the labels in the requested order.
Solution: A, C, B
(A: 5.37 min, C: 1.68 min, B: 1.11 min)

---

# assay.method.text: Waters ACQUITY UPLC BEH C18, 100 × 2.1 mm, 1.7 µm, 40 °C, 0.28 mL/min, estimated dead time 0.63 min; A: water + 6.5 mM ammonium hydroxide; B: methanol + 6.5 mM ammonium hydroxide; gradient (min/%B) 0/0.5 4/70 4.5/98 5.4/98
# measurement.parameters: stereoisomer not certain
reported.property: LC retention time (min)

[1] CC(=O)NCC(=O)O
[2] O=C(O)C(O)Cc1c[nH]c2ccccc12 (stereo not given)
Exercise: Returns the identifier with the smallest measured LC retention time among 1 and 2 . Kindly give the label for the entry you pick.
Solution: 1

[I] O=C1OC(C(O)CO)C(=O)C1=O (stereo not given)
[II] [2H]c1c([2H])c([2H])c(C(=O)NCC(=O)O)c([2H])c1[2H]
Exercise: I'm curious whether I or II has the smaller LC retention time number. Which is it? To answer, give the label that identifies your chosen option.
Solution: I
(I: 0.862 min, II: 2.42 min)

[I] CC(=O)NC(C)C(=O)O (stereo not given)
[II] NC(=O)CCCCC1CCSS1 (stereo not given)
Exercise: Between the entries labelled I and II , which has a larger LC retention time value on record? # answer = label of selected item
Solution: II

[A] CC(CN)C(=O)O (stereo not given)
[B] Cc1ccccc1C(=O)NCC(=O)O
Exercise: Parameter check: reported LC retention time is higher for which label, A or B ? State the label of the item chosen.
Solution: B

[1] O=C(O)CCCCc1ccccc1
[2] NC(=O)C1CCCN1C(=O)C(Cc1cnc[nH]1)NC(=O)C1CCC(=O)N1 (stereo not given)
[3] O=C(O)C(O)Cc1ccc(O)cc1 (stereo not given)
[4] O=CC(O)C1OC(=O)C(O)C1O (stereo not given)
Exercise: List the 4 entries from lowest LC retention time to highest LC retention time value. List labels; respect the requested ordering.
Solution: 4, 3, 2, 1

[1] CCCCCC(=O)NCC(=O)O
[2] Cc1c[nH]c(=O)[nH]c1=O
Exercise: Smaller LC retention time value? Options are 1 and 2 Bench note: the answer is the label of the chosen record.
Solution: 2

[A] Cc1cc2nc3c(=O)[nH]c(=O)nc-3n(CC(O)C(O)C(O)CO)c2cc1C (stereo not given)
[B] CCOC(=O)C1=CC(OC(CC)CC)C(NC(C)=O)C(N)C1 (stereo not given)
Exercise: # argmax over LC retention time for candidates A and B Write down the label attached to your selection.
Solution: B

[I] O=C(O)CCc1c[nH]c2ccccc12
[II] Nc1ncnc2nc[nH]c12
[III] Nc1nc2ncc(CNc3ccc(C(=O)NC(CCC(=O)O)C(=O)O)cc3)nc2c(=O)[nH]1 (stereo not given)
Exercise: Order the records so the highest LC retention time appears first and the lowest last. Put the labels in the order asked and list them.
Solution: I, II, III

---

# assay.method.text: RP, Waters ACQUITY UPLC HSS C18, 100 × 2.1 mm, 1.7 µm, 40 °C, 0.35 mL/min, estimated dead time 0.63 min; A: water + 0.1% formic acid; B: methanol + 0.1% formic acid; gradient (min/%B) 0/0.5 4/70 4.5/98 5.4/98
# measurement.parameters: stereoisomer not certain
reported.property: LC retention time (min)

Known LC retention time results, listed for orientation:
1) Cc1ccccc1C(=O)NCC(=O)O : 3.56
2) CNCCc1ccccc1 : 2.61
3) CC(C)CC(O)C(=O)O (centres undefined) : 3.94
4) c1ncc2[nH]cnc2n1 : 1.69
5) Nc1ccc(O)cc1 : 0.829
6) OCC1OC(OC2C(CO)OC(OC3C(CO)OC(O)C(O)C3O)C(O)C2O)C(O)C(O)C1O (centres undefined) : 0.847
7) COc1cc(O)cc(OC)c1 : 4.13
8) CN(C)C(=N)N=C(N)N : 0.844

[1] NC(CCC(=O)NC(CS)C(=O)NCC(=O)O)C(=O)O (centres undefined)
[2] Cc1cn(C2CC(O)C(COP(=O)(O)O)O2)c(=O)[nH]c1=O (centres undefined)
[3] CC12CCC(=O)C=C1CCC1C2C(O)CC2(C)C1CCC2(O)C(=O)CO (centres undefined)
[4] NCCCC(=O)O
Exercise: Give the ascending ranking of the items by reported LC retention time. // respond by listing labels in the order requested
Solution: 4, 2, 1, 3

---

# assay.method.text: RP, Waters ACQUITY UPLC HSS C18, 100 × 2.1 mm, 1.7 µm, 40 °C, 0.35 mL/min, estimated dead time 0.63 min; A: water + 0.1% formic acid; B: methanol + 0.1% formic acid; gradient (min/%B) 0/0.5 4/70 4.5/98 5.4/98
# measurement.parameters: stereoisomer not certain
reported.property: LC retention time (min)

1) NC(=O)Cc1ccccc1 : 3.38
2) CC12CCC3c4ccc(O)cc4CCC3C1CC(O)C2O (centres undefined) : 4.61

[1] COC(=O)C1=C(C)NC(C)=C(C(=O)OC)C1c1ccccc1[N+](=O)[O-]
[2] CN1CC(=O)NC1=N
Exercise: When the recorded LC retention time values are compared, which is smaller: that of 1 or that of 2 ? Record your answer as the label of the chosen record.
Solution: 2
(2: 0.77 min, 1: 5.28 min)

[1] O=C(O)Cc1cc(O)ccc1O
[2] O=Cc1ccccc1C(=O)O
Exercise: Which entry has a larger number for LC retention time, 1 or 2 ? # answer = label of selected item
Solution: 2
(2: 3.24 min, 1: 2.23 min)

[A] O=C(O)c1c[nH]c2ccccc12
[B] Cc1cn(C2CC(O)C(CO)O2)c(=O)[nH]c1=O (centres undefined)
Exercise: Higher LC retention time: A or B ? Bench note: the answer is the label of the chosen record.
Solution: A
(A: 4.08 min, B: 2.29 min)

---

# assay.method.text: RP, Waters ACQUITY UPLC HSS C18, 100 × 2.1 mm, 1.7 µm, 40 °C, 0.35 mL/min, estimated dead time 0.63 min; A: water + 0.1% formic acid; B: methanol + 0.1% formic acid; gradient (min/%B) 0/0.5 4/70 4.5/98 5.4/98
# measurement.parameters: stereoisomer not certain
reported.property: LC retention time (min)

1. CC(CC(=O)O)CC(=O)O : 3.02
2. Cc1ncc(CO)c(C=O)c1O : 0.85
3. O=C1OC(CO)C(O)C(O)C1O (stereo unspecified) : 0.795

[a] NC(N)=NCCCC(=O)O
[b] Oc1ccc2[nH]ccc2c1
[c] NCc1ccccc1
Exercise: List by increasing LC retention time. Rank the items, then write their labels in that order.
Solution: a, c, b
